The values you see were collected from patent US11730720B2.

biological target: recombinant human ALK5 (TGF-βR1) protein (Homo sapiens); experiment: Biochemical ALK5 (TGF-βR1) assay to measure pKi (LANCE Ultra ULight kinase assay); conditions: apparent pKi, converted from pIC50 using the Cheng-Prusoff equation
Sequence (P36897 34-503): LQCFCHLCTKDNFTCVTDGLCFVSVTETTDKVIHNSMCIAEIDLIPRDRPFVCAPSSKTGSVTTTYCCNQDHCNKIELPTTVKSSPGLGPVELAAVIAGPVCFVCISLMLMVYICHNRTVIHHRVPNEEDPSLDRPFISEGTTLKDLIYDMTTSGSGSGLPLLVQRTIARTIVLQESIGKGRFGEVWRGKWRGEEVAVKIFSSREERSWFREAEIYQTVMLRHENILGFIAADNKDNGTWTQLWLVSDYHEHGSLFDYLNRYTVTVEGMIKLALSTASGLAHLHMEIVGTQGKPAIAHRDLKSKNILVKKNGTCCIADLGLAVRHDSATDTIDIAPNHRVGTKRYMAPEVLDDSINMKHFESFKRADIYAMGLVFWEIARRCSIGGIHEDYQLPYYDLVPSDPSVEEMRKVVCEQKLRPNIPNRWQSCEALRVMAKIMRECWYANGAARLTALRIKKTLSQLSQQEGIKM
pKi: −log10 of the molar value.
Below, each entry is listed with its recorded pKi.

Look over these answered cases.
CN1CCC(N(C)c2cnc3ccc(-c4c[nH]nc4-c4cc(Cl)ccc4F)nc3c2)C1 (racemic) ... 9.50 to 10.40
Fc1cc(F)c(-c2n[nH]cc2-c2ccc3ncc(NCCN4CCCC4)cc3n2)cc1Cl ... 8.50 to 9.40
Fc1ccc(Cl)cc1-c1n[nH]cc1-c1ccc2ncc(N3CCCNCC3)cc2n1 ... 8.50 to 9.40
Fc1ccc(Cl)cc1-c1n[nH]cc1-c1ccc2ncc(-c3ncc4n3CCNC4)cc2n1 ... 9.50 to 10.40

// recorded pKi for COC(=O)C1CN(CCNc2cnc3ccc(-c4c[nH]nc4-c4cc(Cl)ccc4F)nc3c2)CCN1 (stereo not shown) : 9.50 to 10.40

// recorded pKi for CC(C)N1CCN(CCNc2cnc3ccc(-c4nc[nH]c4-c4cc(Cl)c(F)cc4F)cc3c2)CC1 : 9.50 to 10.40

// recorded pKi for Fc1ccc(Cl)cc1-c1n[nH]cc1-c1ccc2ncc(N3CCn4nc(N5CCN(Cc6ccccc6)CC5)nc4C3)cc2n1 : 9.50 to 10.40

* * *

Below, each entry is listed with its recorded IC50.
test system: TGF-β-stimulated SMAD3 phosphorylation in BEAS-2B cells; assay: Cellular ALK5 potency assay, inhibition of TGF-β stimulated pSMAD3 formation in BEAS-2B cells; assay type: cell-based; details: Homo sapiens, inhibition of TGF-β (10 ng/mL) stimulated pSMAD3 formation, 1 hour compound incubation, read-out: BEAS2B pIC50 (converted)

Look over these answered cases.
CC(C)N1CCN(c2cnc3ccc(-c4c[nH]nc4-c4ccccc4F)nc3c2)CC1 [Compound 11-3] ... 25.1 to 158 nM
CC(C)N1CCN(c2cnc3ccc(-c4c[nH]nc4-c4cc(Cl)ccc4F)nc3c2)CC1 [Compound 1-43] ... 25.1 to 158 nM
CNCC1CN(c2cnc3ccc(-c4c[nH]nc4-c4cc(Cl)c(F)cc4F)nc3c2)C1 [Compound 6-29] ... ≤ 20 nM
C[C@@H]1CN(CCNc2cnc3ccc(-c4nc[nH]c4-c4cccc(Cl)c4)cc3c2)C[C@H](C)N1 [Compound 24-3] ... 25.1 to 158 nM

// recorded IC50 for CC(C)OC(=O)[C@H]1CN(c2cnc3ccc(-c4c[nH]nc4-c4cc(Cl)ccc4F)nc3c2)CCN1 [Compound 1-68] : 25.1 to 158 nM

// recorded IC50 for Fc1ccc(Cl)cc1-c1n[nH]cc1-c1ccc2ncc(NC3CNC3)cc2n1 [Compound 1-18] : 25.1 to 158 nM

// recorded IC50 for Fc1ccc(Cl)cc1-c1[nH]cnc1-c1ccc2ncc(-c3nc4n(n3)CCNC4)cc2c1 [Compound 17-13] : ≤ 20 nM

// recorded IC50 for CN(C)C1CCN(c2cnc3ccc(-c4c[nH]nc4-c4ccc(F)c(F)c4)nc3c2)CC1 [Compound 8-7] : 25.1 to 158 nM

// recorded IC50 for CC(C)NCCN1CCN(c2cnc3ccc(-c4c[nH]nc4-c4cc(Cl)c(F)cc4F)nc3c2)CC1 [Compound 6-39] : 25.1 to 158 nM

* * *

target: recombinant human ALK5 (TGF-βR1) protein (Homo sapiens); experiment: Biochemical ALK5 (TGF-βR1) assay to measure pKi (LANCE Ultra ULight kinase assay); conditions: apparent pKi, converted from pIC50 using the Cheng-Prusoff equation
pKi: −log10 of the molar value.
Below, each entry is listed with its recorded pKi.

Look over these answered cases.
Fc1ccc(Cl)cc1-c1n[nH]cc1-c1ccc2ncc(-c3nnn4c3NCC4)cc2n1 ... 9.50 to 10.40
Fc1ccc(-c2n[nH]cc2-c2ccc3ncc(-c4cn[nH]c4)cc3n2)c(F)c1 ... 9.50 to 10.40
Fc1ccccc1-c1n[nH]cc1-c1ccc2ncc(-c3cccnc3)cc2n1 ... 7.50 to 8.40
NC1CC=C(c2cnc3ccc(-c4c[nH]nc4-c4ccc(F)c(F)c4)nc3c2)CC1 (centres unmarked) ... 9.50 to 10.40
CNC1CN(c2cnc3ccc(-c4c[nH]nc4-c4cc(Cl)c(F)cc4F)nc3c2)C1 ... 9.50 to 10.40

// recorded pKi for CN1CCN(C2CCN(c3cnc4ccc(-c5nn[nH]c5-c5cc(Cl)ccc5F)cc4c3)CC2)CC1 : 8.50 to 9.40

// recorded pKi for Fc1ccc(Cl)cc1-c1[nH]cnc1-c1ccc2ncc(-c3nc4n(n3)CCNC4)cc2n1 : 9.50 to 10.40

// recorded pKi for CNC1CCN(c2cnc3ccc(-c4c[nH]nc4-c4cc(Cl)c(F)cc4F)nc3c2)C1 (centres unmarked) : ≥ 10.50

* * *

target: recombinant human ALK5 (TGF-βR1) protein (Homo sapiens); construct: purchased Life Technologies PR9075A; assay: Biochemical ALK5 (TGF-βR1) assay to measure pKi (LANCE Ultra ULight kinase assay); details: apparent pKi, converted from pIC50 using the Cheng-Prusoff equation
value_kind: Ki

OCCN1CCN(c2cnc3ccc(-c4c[nH]nc4-c4ccc(F)c(F)c4)nc3c2)CC1 ... 3.98 to 31.6 nM
Fc1ccc(Cl)cc1-c1n[nH]cc1-c1ccc2ncc(N3CCC(N4CCCCC4)C3)cc2n1 (racemic) ... 0.0398 to 0.316 nM

// recorded Ki for COC(=O)CC1CN(c2cnc3ccc(-c4c[nH]nc4-c4cc(Cl)ccc4F)nc3c2)CCN1 (stereo not shown) : 0.0398 to 0.316 nM

// recorded Ki for COC(=O)[C@H]1CN(c2cnc3ccc(-c4c[nH]nc4-c4cc(Cl)ccc4F)nc3c2)CCN1CCN : 0.398 to 3.16 nM

* * *

Below, each entry is listed with its recorded IC50.
test system: TGF-β-stimulated SMAD3 phosphorylation in BEAS-2B cells; assay: Cellular ALK5 potency assay, inhibition of TGF-β stimulated pSMAD3 formation in BEAS-2B cells; type: cell-based; conditions: Homo sapiens, inhibition of TGF-β (10 ng/mL) stimulated pSMAD3 formation, 1 hour compound incubation, read-out: BEAS2B pIC50 (converted)

Look over these answered cases.
Fc1cc(F)c(-c2n[nH]cc2-c2ccc3ncc(-c4cn(Cc5c[nH]cn5)nn4)cc3n2)cc1Cl [Compound 6-62] ... 0.0251 to 0.158 µM
CC(C)N1CC2CN(c3cnc4ccc(-c5c[nH]nc5-c5cc(Cl)ccc5F)nc4c3)C2C1 (stereo not shown) [Compound 1-73] ... 0.0251 to 0.158 µM
CNCCn1cc(-c2cnc3ccc(-c4nc[nH]c4-c4ccc(F)c(F)c4)nc3c2)cn1 [Compound 9-3] ... ≤ 0.02 µM
Fc1ccc(Cl)cc1-c1nc2ccccn2c1-c1ccc2ncc(N3CCCNCC3)cc2n1 [Compound 3-3] ... 0.0251 to 0.158 µM
CN(C)C1CN(c2cnc3ccc(-c4c[nH]nc4-c4cc(Cl)ccc4F)nc3c2)C1 [Compound 1-31] ... ≤ 0.02 µM

// recorded IC50 for CN(C)C1CCN(c2cnc3ccc(-c4nc[nH]c4-c4cc(Cl)ccc4F)nc3c2)C1 (racemic) [Compound 2-11] : ≤ 0.02 µM

// recorded IC50 for Fc1ccc(Cl)cc1-c1n[nH]cc1-c1ccc2ncc(NCC3CCNCC3)cc2n1 [Compound 1-27] : 0.0251 to 0.158 µM

// recorded IC50 for Cc1nn2c(c1-c1cnc3ccc(-c4c[nH]nc4-c4cc(Cl)ccc4F)nc3c1)NCCC2 [Compound 1-120] : 0.0251 to 0.158 µM

* * *

Below, each entry is listed with its recorded IC50.
test system: TGF-β-stimulated SMAD3 phosphorylation in BEAS-2B cells; assay: Cellular ALK5 potency assay, inhibition of TGF-β stimulated pSMAD3 formation in BEAS-2B cells; type: cell-based; details: Homo sapiens, inhibition of TGF-β (10 ng/mL) stimulated pSMAD3 formation, 1 hour compound incubation, read-out: BEAS2B pIC50 (converted)

CN(C)C1CCN(c2cnc3ccc(-c4c[nH]nc4-c4cc(Cl)ccc4F)nc3c2)CC1 ... ≤ 20 nM
CN(C)C1(C)CN(c2cnc3ccc(-c4c[nH]nc4-c4cc(Cl)c(F)cc4F)nc3c2)C1 ... 25.1 to 158 nM
Fc1ccc(Cl)cc1-c1[nH]cnc1-c1ccc2ncc(-c3cnc4n3CCNC4)cc2c1 ... 25.1 to 158 nM
Fc1cc(F)c(-c2n[nH]cc2-c2ccc3ncc(NCC4CCCCN4)cc3n2)cc1Cl (stereo not drawn) ... 25.1 to 158 nM
C[C@@H]1CN(CCNc2cnc3ccc(-c4nc[nH]c4-c4cccc(Cl)c4)nc3c2)C[C@H](C)N1 ... 25.1 to 158 nM
C[C@@H]1CN(c2cnc3ccc(-c4c[nH]nc4-c4cc(Cl)ccc4F)nc3c2)[C@H](C)CN1C (racemic) ... 25.1 to 158 nM
CC(C)N1CCN(CCNc2cnc3ccc(-c4c[nH]nc4-c4cc(Cl)c(F)cc4F)nc3c2)CC1 ... 25.1 to 158 nM
Fc1ccc(Cl)cc1-c1[nH]cnc1-c1ccc2ncc(-c3cn[nH]c3)cc2c1 ... ≤ 20 nM
NC1CN(c2cnc3ccc(-c4c[nH]nc4-c4cc(Cl)ccc4F)nc3c2)C1 ... ≤ 20 nM
O=C(O)[C@H]1CN(c2cnc3ccc(-c4c[nH]nc4-c4cc(Cl)ccc4F)nc3c2)CCN1 ... 200 to 1260 nM

The reported IC50 value, TGF-β-stimulated SMAD3 phosphorylation in BEAS-2B cells, for CN(C)C1CCN(c2cnc3ccc(-c4c[nH]nc4-c4cc(Cl)c(F)cc4F)nc3c2)C1 (racemic) reads 25.1 to 158 nM

The reported IC50 value, TGF-β-stimulated SMAD3 phosphorylation in BEAS-2B cells, for CNCCn1cc(-c2cnc3ccc(-c4c[nH]nc4-c4ccc(F)c(F)c4)nc3c2)nn1 reads 25.1 to 158 nM

The reported IC50 value, TGF-β-stimulated SMAD3 phosphorylation in BEAS-2B cells, for CN1CCN(C2CCN(c3cnc4ccc(-c5nn[nH]c5-c5cc(Cl)ccc5F)cc4c3)CC2)CC1 reads 25.1 to 158 nM

The reported IC50 value, TGF-β-stimulated SMAD3 phosphorylation in BEAS-2B cells, for Fc1ccc(Cl)cc1-c1[nH]cnc1-c1ccc2ncc(-c3cc4n(n3)CCNC4)cc2c1 reads ≤ 20 nM

The reported IC50 value, TGF-β-stimulated SMAD3 phosphorylation in BEAS-2B cells, for COC(=O)[C@H]1CN(c2cnc3ccc(-c4c[nH]nc4-c4cc(Cl)ccc4F)nc3c2)CCN1 reads 25.1 to 158 nM
